Target chain: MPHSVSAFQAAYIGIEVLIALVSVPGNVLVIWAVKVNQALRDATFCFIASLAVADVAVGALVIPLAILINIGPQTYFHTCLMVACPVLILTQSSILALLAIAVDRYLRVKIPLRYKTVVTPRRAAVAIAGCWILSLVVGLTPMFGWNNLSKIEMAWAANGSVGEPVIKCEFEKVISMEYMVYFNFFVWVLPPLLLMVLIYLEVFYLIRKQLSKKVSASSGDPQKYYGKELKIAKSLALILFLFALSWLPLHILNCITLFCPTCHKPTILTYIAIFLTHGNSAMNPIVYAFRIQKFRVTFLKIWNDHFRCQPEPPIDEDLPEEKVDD
value.type: Ki (nM)
Please respond with the number in nM and leave the unit unwritten.

Q. I would be grateful if you could share the reported Ki for O=C(O)CCCn1nc(-c2c(-c3ccccc3)nn3ccccc23)ccc1=O .
A. 10
